Where do these numbers come from? They come from paper PMC10322970.

For each record, write down the corresponding Kd.
Target: integrin αvβ5 (Homo sapiens, UniProt P06756+P18084)
Sequence (P06756 31-1048): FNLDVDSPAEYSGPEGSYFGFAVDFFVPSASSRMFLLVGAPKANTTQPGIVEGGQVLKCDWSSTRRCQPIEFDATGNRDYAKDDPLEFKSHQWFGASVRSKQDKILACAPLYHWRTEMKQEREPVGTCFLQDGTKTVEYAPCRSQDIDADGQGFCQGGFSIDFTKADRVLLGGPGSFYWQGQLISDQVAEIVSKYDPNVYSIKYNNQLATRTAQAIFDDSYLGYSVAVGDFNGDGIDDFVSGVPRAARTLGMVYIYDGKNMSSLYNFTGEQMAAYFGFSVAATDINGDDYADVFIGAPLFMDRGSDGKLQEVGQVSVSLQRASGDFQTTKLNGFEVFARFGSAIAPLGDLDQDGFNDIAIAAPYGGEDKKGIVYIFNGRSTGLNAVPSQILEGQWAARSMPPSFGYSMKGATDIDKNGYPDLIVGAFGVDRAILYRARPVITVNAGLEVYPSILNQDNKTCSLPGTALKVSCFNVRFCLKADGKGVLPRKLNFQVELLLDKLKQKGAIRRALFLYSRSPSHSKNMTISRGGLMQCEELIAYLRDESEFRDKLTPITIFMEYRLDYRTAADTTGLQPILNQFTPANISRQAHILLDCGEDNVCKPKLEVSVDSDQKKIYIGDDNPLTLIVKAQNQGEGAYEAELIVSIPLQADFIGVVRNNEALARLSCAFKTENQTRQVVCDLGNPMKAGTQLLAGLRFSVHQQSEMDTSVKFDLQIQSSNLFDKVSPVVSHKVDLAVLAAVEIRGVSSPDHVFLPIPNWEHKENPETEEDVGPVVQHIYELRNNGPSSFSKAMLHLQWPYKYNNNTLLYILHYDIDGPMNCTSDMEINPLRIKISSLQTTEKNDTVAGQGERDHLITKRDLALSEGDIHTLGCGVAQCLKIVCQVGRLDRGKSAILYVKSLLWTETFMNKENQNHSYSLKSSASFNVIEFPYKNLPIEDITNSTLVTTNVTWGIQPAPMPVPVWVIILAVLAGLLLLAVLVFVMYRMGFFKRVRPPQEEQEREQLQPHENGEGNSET
Sequence (P18084 24-799): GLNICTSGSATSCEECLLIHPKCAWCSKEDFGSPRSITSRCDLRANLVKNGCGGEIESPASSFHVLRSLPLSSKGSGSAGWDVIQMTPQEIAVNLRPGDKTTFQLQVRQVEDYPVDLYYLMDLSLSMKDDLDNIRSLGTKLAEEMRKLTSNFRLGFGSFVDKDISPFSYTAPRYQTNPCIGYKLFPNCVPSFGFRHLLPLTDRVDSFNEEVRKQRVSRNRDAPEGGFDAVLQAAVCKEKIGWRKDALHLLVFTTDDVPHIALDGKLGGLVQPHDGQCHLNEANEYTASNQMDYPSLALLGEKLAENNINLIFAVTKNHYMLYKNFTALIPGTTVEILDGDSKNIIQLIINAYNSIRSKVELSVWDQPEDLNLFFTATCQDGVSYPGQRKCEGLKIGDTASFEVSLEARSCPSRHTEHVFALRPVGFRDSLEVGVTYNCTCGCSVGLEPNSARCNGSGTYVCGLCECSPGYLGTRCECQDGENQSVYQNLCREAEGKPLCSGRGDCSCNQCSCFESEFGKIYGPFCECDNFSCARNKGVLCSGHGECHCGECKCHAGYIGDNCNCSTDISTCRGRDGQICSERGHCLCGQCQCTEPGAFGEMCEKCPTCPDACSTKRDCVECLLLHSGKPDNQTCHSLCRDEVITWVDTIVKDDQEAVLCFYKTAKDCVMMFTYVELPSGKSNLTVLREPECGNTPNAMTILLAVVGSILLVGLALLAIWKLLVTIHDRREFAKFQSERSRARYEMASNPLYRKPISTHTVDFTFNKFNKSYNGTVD
Test: SPR binding to immobilised integrin αvβ5
Quote the value and follow it with the unit of measurement.

Input: Record COC(=O)[C@@H]1Cc2c[nH]c3c(cccc23)C2=CC(=O)N(CCCC[C@H](N)C(=O)N[C@@H](CCCNC(=N)N)C(=O)NCC(=O)N[C@@H](CC(=O)O)C(=O)NCC(=O)N1)C2=O [10a] : what is its Kd with integrin αvβ5 (Homo sapiens, UniProt P06756+P18084)?
Output: 6.13 µM

Input: Lab note: need Kd for N=C(N)NCCC[C@@H]1NC(=O)[C@H](CCCCNC(=S)Nc2ccc3c(c2)C(=O)OC32c3ccc(O)cc3Oc3cc(O)ccc32)NC(=O)[C@@H](Cc2ccccc2)NC(=O)[C@H](CC(=O)O)NC(=O)CNC1=O [10c, cyclo-(RGDfK (FITC)), reference compound] on integrin αvβ5 (Homo sapiens, UniProt P06756+P18084), anyone have it?
Output: 4.13 µM

---

Molecular target: integrin αvβ3 (Homo sapiens, UniProt P05106+P06756)
Sequence (P06756 31-1048): as the sequence (P06756 31-1048) above
Sequence (P05106 27-788): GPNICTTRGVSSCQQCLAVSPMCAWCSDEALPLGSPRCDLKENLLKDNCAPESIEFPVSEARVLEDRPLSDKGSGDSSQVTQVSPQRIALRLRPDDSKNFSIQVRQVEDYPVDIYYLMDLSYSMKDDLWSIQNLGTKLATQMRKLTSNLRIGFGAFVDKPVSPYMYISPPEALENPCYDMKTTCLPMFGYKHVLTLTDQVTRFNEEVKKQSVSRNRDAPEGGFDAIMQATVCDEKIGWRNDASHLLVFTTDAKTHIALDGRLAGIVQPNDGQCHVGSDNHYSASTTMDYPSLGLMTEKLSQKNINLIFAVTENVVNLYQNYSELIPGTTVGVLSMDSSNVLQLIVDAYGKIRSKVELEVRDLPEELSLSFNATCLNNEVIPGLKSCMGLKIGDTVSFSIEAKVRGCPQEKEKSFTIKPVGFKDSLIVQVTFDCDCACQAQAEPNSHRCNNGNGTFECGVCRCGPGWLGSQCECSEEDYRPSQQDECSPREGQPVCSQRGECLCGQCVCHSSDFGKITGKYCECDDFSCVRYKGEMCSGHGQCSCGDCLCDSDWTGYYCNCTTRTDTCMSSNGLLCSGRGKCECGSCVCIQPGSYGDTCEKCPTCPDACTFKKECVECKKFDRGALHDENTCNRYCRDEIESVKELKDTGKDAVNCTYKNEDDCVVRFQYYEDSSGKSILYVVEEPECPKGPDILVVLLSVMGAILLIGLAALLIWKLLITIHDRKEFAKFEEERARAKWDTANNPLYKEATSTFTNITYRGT
Experiment: SPR binding to immobilised integrin αvβ3
Exercise: state measured Kd for each of the compounds provided.
Return type: number; implicit unit µM.

Input: Entry COC(=O)[C@@H]1Cc2c[nH]c3c(cccc23)C2=CC(=O)N(CCCC[C@H](N)C(=O)N[C@@H](CCCNC(=N)N)C(=O)NCC(=O)N[C@@H](CC(=O)O)C(=O)NCC(=O)N1)C2=O [10a] has what Kd?
Output: 0.675

Input: Param item = N=C(N)NCCC[C@@H]1NC(=O)[C@H](CCCCNC(=S)Nc2ccc3c(c2)C(=O)OC32c3ccc(O)cc3Oc3cc(O)ccc32)NC(=O)[C@@H](Cc2ccccc2)NC(=O)[C@H](CC(=O)O)NC(=O)CNC1=O [10c, cyclo-(RGDfK (FITC)), reference compound] ; retrieve measured Kd.
Output: 65.5
